# targetSystem: h-11βHSD1 (Homo sapiens, UniProt P28845)
# Sequence (P28845 whole entry): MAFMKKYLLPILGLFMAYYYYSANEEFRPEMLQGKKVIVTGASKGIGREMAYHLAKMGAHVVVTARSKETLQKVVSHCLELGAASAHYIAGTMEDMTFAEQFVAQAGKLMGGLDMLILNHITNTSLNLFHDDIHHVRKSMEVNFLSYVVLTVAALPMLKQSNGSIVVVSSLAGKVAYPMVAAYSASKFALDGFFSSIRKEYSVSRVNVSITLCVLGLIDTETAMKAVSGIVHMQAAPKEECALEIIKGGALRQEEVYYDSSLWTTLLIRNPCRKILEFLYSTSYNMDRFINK
pIC50: −log10 of the molar value.
observationType: pIC50

compound: O=C(O)c1ccc(OCCC2CCN(C(=O)[C@]34C[C@H]5C[C@H](C[C@H](C5)C3)C4)CC2)cc1 [Example 3]
targetSystem: h-11βHSD1 (Homo sapiens, UniProt P28845)
observationType: pIC50
observedResult: 5.88

# credit: patent US20100168083A1
